- Assayed target: T1, A33 antigen (full-length human A33) (human, UniProt Q99795 22-319)
- T1 construct: Class I cell membrane protein of the Ig superfamily; also called GPA33; human A33 antigen
- T1 sequence: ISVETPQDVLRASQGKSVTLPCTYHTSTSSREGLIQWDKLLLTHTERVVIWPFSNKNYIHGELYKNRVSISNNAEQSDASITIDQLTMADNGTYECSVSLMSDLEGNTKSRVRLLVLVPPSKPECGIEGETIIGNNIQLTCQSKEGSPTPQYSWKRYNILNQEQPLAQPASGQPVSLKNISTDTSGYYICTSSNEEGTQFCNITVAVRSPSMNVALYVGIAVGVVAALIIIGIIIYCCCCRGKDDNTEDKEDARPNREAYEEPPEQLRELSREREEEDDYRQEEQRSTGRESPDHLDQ
- Assay explanation: FCM on NCI-H508 cells; grade = ng/ml to reach half MFI 125 (+++ 10<=x<100, ++ 100<=x<1000, + 1000<=x<10000)
Measurement type: antibody concentration required to reach half value of mean fluorescence intensity

Some solved entries appear below for comparison.
Binder	Experimental result
125M10AA (antibody, human IgG1, kappa, V domains shown, Human IgG1 kappa antibody purified from hybridoma 125M10AA (FERM BP-10107); also called 125M10AA antibody) VH: QLQVQESGPGLVKPSETLSLICTVSGGSIRTSGYYWGWFRQPPGKGLEWIGTSHNSGSTYYNPSLKSRVTISVDTSKNQFSLKLNSVTAADTAVYYCARQGYDFKVNIDVWGQGTTVTVSS VL: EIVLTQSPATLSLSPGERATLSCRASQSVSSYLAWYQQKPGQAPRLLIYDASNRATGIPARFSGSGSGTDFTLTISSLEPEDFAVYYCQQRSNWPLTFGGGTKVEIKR	10 to 100 ng/mL
263A17 (antibody, V domains shown, Human IgG1 kappa antibody purified from the hybridoma; also called 263A17 antibody) VH: EVQLLESGGGLVQPGGSLRLSCAASGFTFSSYAMSWIRQAPGKGLEWVSAISASGGSTYYADSVKGRFTISRDNSKNTLYLQMNSLRAEDTAVYYCAKDRIVGATNYYYGMDVWGQGTTVTVSS VL: DIQMTQSPPSVSASVGDRVTITCRASQGISSWLAWYQHKPGKAPKLLIYGASSLQSGVPSRFSGSGSGTDFTLTISSLQPEDFATYYCQQANSFPITFGQGTRLEIK	100 to 1000 ng/mL

Shift focus to the following entry.
*Q* Which measured antibody concentration required to reach half value of mean fluorescence intensity value corresponds to 125R5AAAA (antibody, V domains shown, Human IgG1 kappa antibody purified from the hybridoma (FERM BP-10103); also called 125R5AAAA antibody) VH: EVQLLESGGGLVQPGGSLRLSCAASGFTFSSYAMSWVRQAPGKGLEWVSDISGSGGYTYYADSVKGRFTISRDNSKKTLYLQMNSLRAEDTAVYYCAKTGDGSGSYSPDYWGQGTLVTVSS VL: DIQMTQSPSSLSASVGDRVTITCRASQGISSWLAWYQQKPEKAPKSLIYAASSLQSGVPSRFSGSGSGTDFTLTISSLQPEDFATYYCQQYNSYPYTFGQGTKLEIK ?
*A* 100 to 1000 ng/mL

Source: patent US20080200654A1
